test: Toxicity liver stage against HepG2, at 10uM; format: cell-based; design: test concentration 10 uM, cell line HepG2-A16-CD81EGFP; details: human, HepG2-A16-CD81EGFP cells; read-out: INHIBITION

Molecule | cytotoxicity at 10 µM
CN1CCCCC12CCN(C(=O)c1cccn1C)CC2 | 8.22%
COCCOCC(=O)N(C)Cc1ccc(OCc2cccs2)cc1 | 4.38%
Cc1nc(CN2C[C@@H](CN3CCOCC3)[C@@H](CO)C2)c2ccccn12 | 0.363%
COCCc1noc(-c2ccc(-c3cc[nH]n3)nc2)n1 | -2.79%

----------
experiment: Toxicity liver stage against HepG2, at 10uM; format: cell-based; set-up: test concentration 10 uM, cell line HepG2-A16-CD81EGFP; conditions: human, HepG2-A16-CD81EGFP cells; read-out: INHIBITION
Recorded cytotoxicity at 10 µM values for a group of compounds are listed next.
Quantity measured: cytotoxicity at 10 µM (%)

Compound | Assay value
c1ccc(-n2ccc(CN3CCCC3Cn3cccn3)n2)cc1 (centres undefined) | -2.48
Cc1cc(C(=O)Nc2ccn(CCCN3CCCC3)n2)c(C)o1 | -7.12
O=c1ccc2c(n1CC1CC1)CCN(c1ncccn1)CC2 | 7.17
COc1ccc(CNCC2CN(C3CC3)CCO2)cc1C (centres undefined) | -8.01
CC(C)(C)NC(=O)c1nn(C2CCS(=O)(=O)C2)c2c1CCCC2 (centres undefined) | 10.1
COCCN1CCCn2c(nc(CNS(C)(=O)=O)cc2=O)C1 | -110
CN(C(=O)COc1ccc(F)cc1)[C@@H]1CC[C@@H](n2ccnc2)[C@@H]1O | -5.28
CNC(=O)c1cc2c(s1)CCN(C(=O)CCC1CCCN(C)C1)C2 (centres undefined) | -29.3
Cc1ccc2c(n1)N(CCn1cccn1)CCN(C(=O)NC1CC1)C2 | -4.58
